meta.source: ChEMBL document CHEMBL1145498

TARGET SYSTEM: Serine/threonine-protein kinase 17A (Homo sapiens)
Sequence (whole entry): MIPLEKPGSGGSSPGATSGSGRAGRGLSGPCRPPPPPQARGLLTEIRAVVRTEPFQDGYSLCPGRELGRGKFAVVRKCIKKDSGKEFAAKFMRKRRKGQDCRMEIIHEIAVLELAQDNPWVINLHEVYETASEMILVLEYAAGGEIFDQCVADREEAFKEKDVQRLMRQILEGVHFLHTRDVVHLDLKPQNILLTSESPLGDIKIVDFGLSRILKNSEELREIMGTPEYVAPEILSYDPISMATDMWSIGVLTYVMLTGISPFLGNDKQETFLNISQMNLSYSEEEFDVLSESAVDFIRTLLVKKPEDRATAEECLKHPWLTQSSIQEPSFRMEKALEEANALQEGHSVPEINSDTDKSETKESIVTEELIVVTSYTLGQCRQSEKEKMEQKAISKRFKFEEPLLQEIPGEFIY
Classification by ΔTm | ranges: 1 (below 0.6 °C), 2 (0.6 °C to below 2 °C), 3 (2 °C or more)

Q. Band of O=C1c2ccccc2-[n+]2ccc3c([nH]c4ccccc43)c21 [FASCAPLYSIN CHLORIDE] ?
A. 2

Q. Band of CC(C)N(CCO)c1nc(Nc2cccc(Cl)c2)c2ncn(C(C)C)c2n1 ?
A. 1

Q. Band of C[C@@H](N)[C@H]1CC[C@H](C(=O)Nc2ccncc2)CC1 ?
A. 2

Q. Band of N#C/C(=C\c1ccc(O)c(O)c1)C(=O)Nc1ccccc1 ?
A. 3

Q. Band of COC1=C2C[C@@H](C)C[C@H](OC)[C@H](O)[C@@H](C)/C=C(\C)[C@H](OC(N)=O)[C@@H](OC)/C=C\C=C(/C)C(=O)NC(=CC1=O)C2=O ?
A. 1

Q. Band of O=C1Cc2c([nH]c3ccc([N+](=O)[O-])cc23)-c2ccccc2N1 ?
A. 3

Q. Band of CC(C)[C@H](CO)Nc1nc(Nc2cc(N)cc(Cl)c2)c2ncn(C(C)C)c2n1 ?
A. 2

Q. Band of O=S(=O)(NCCNC/C=C/c1ccc(Br)cc1)c1cccc2cnccc12 ?
A. 2

Q. Band of OC[C@H]1O[C@@H](n2cnc3cc(Cl)c(Cl)cc32)[C@H](O)[C@@H]1O ?
A. 3

Q. Band of CCN(CC)CCNC(=O)c1c(C)[nH]c(/C=C2\C(=O)Nc3ccc(F)cc32)c1C ?
A. 3

Q. Band of CC(C)(C)c1cc(C=C2C(=O)C=CC2=O)cc(C(C)(C)C)c1O ?
A. 1
